Molecular target: T1, human HER3/ErbB3 extracellular domain (human, UniProt P21860 20-643)
T1 construct: extracellular domain; the range 1-643 of M34309 is printed only for the immunogen; also called Human HER3 ECD; recombinant human HER3
T1 sequence (P21860 20-643): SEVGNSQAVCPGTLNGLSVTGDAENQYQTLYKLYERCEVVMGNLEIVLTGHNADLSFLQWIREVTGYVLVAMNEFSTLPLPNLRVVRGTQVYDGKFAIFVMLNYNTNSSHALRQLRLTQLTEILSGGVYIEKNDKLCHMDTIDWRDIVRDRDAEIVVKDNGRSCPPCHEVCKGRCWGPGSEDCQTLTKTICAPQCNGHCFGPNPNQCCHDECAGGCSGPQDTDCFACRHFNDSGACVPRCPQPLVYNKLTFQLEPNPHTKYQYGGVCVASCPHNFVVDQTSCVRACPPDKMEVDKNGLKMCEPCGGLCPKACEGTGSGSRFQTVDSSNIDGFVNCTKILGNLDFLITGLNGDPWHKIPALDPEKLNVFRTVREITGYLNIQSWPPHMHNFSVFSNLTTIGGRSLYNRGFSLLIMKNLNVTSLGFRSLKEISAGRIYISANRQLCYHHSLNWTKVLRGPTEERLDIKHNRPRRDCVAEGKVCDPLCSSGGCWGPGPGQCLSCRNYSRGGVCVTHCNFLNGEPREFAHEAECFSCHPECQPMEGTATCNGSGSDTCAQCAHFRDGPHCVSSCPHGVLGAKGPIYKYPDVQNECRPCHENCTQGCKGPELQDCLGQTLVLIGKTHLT
Assay: SPR, Biacore T-100, HER3 ECD
readout kind: koff (s⁻¹)
Express it in s⁻¹; write the number only.

// known answers, use as guide
- binder: "HER3-hMab-A14 (antibody, V domains shown) VH: QVQLVESGGGLVQPGGSLRLSCSASGFSFSSSYWICWVRQAPGKGLELIGYIWSGNGATYYASWAKGRFTISRDTSKNTVYLQMNSLRAEDTAVYFCARNYDASGYGIFHLWGPGTLVTVSS VL: DIQMTQTPSSLSASVGDRVTINCQASQSIVSSYLSWYQQKPGKPPKLLIYSASKLASGVPSRFSGSGSGTDFTLTISSLQPEDFATYYCLYGVDSSNIDNAFGGGTKVEIK"
  unit abbreviation: "s⁻¹"
  koff: 0.000174
- binder: "Chi46 (antibody, V domains shown, also called parental rabbit/human Fc chimera of Rab46) VH: EEQLVESGGGLVQPEGSLTLTCTASGFSFSASYYIYWVRQAPGKGLEGIAYITGDDDKRTYYANWAKGRFTISKTSTTVTLQMTSLTAADTATYFCTRNLPDELWGPGTLVTVSS VL: QAVVTQTPSSVSAAVGGTVTISCQSSESVYSYKNLAWYQQKPGQPPRLLIWQASRLSSGVSSRFSGSGSGTQFTLTISGVQCDDAATYYCQGTYYSSAWDFVFGGGTEVMVE"
  unit abbreviation: "s⁻¹"
  koff: 0.000458
- binder: "HER3-hMab-A10 (antibody, V domains shown) VH: QVQLVESGGGLVQPGGSLRLSCSASGFSFSASYYIYWVRQAPGKGLEYIAYITGDDDKRTYYANWAKGRFTISRDTSKNTVYLQMNSLRAEDTAVYYCTRNLPDELWGPGTLVTVSS VL: DIQMTQTPSTLSASVGDRVTITCQSSESVYSYKNLAWYQQKPGKPPKLLIWQASRLSSGVPSRFSGSGSGTEFTLTISSLQPDDFATYYCQGTYYSSAWDFVFGGGTKVEIK"
  unit abbreviation: "s⁻¹"
  koff: 0.000169

// switching to the query binder
Please look at this binder and report its koff: Chi1210 (antibody, V domains shown, also called parental rabbit/human Fc chimera of Rab1210) VH: QEQLEESGGGLVQPEGSLTLTCTASGFSFSSSYWICWVRQAPGKGLELIGYIWSGNGATYYASWAKGRFTISKTSSTTVTLQMTSVTATDTATYFCARNYDASGYGIFHLWGPGTLVTVSS VL: AVVMTQTPASVSAAVGGTVTINCQASQSIVSSYLSWYQQKTGQPPKLLIYSASKLASGVPPRFSGSGSGTQFTLTISGVQCDDAATYYCLYGVDSSNIDNAFGGGTEVVVK
0.000644
